# MEASURED_ON: T1, human retinoid X receptor beta (polypeptide encoded by prey clone CL06-stim-2) (human, UniProt P28702 1-533, limits assumed)
# T1 sequence (looked up): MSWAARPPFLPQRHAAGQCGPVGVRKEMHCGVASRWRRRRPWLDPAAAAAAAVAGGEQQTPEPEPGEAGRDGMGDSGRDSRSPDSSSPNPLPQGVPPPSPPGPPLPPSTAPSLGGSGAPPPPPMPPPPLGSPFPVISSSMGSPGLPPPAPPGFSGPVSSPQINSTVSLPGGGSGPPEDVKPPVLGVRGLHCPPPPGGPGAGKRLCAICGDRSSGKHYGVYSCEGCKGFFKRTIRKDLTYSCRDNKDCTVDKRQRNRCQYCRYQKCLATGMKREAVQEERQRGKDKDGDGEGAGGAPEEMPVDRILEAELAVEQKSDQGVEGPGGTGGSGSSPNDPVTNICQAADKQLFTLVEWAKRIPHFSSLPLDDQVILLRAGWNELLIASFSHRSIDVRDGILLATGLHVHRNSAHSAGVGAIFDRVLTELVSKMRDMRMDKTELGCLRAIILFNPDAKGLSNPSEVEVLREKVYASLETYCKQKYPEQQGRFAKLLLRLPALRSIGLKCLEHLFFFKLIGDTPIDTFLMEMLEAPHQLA
# PROTOCOL: cell-based or functional assay
Give Reporter Ratio (A5T4 reporter line, IL-4 induced germline ε transcription) for every item shown.
One number for each entry.

BINDER	NUMBER
AALCSYAHSYAA [peptide CL06MS (AALCSYAHSYAA)]	1.56
MSLCAAAHSYAA (Dual alanine mutant of CL06wt (first S, Y to A, A); Yeast two-hybrid bait fusion and BFP fusion as for CL06wt) [peptide CL06SY1 (MSLCAAAHSYAA)]	1.09
MSLCSYAHSYAA [peptide CL06wt (MSLCSYAHSYAA)]	1.3

Let us move to another entry and its Reporter Ratio (A5T4 reporter line, IL-4 induced germline ε transcription).
I'd like to know its Reporter Ratio (A5T4 reporter line, IL-4 induced germline ε transcription). The binder in question is MSAASYAHSYAA (Dual alanine mutant of CL06wt (L, C to A, A); Yeast two-hybrid bait fusion and BFP fusion as for CL06wt) [peptide CL06LC (MSAASYAHSYAA)]
1.06
